Source listed as paper PMC7984436.

Format: in vivo, human
Conditions: human, plasma, oral, 150 mg, Cmax, Study period 1, day 1: bupropion 150 mg alone, n = 22, mean ± SD, plasma
Parameter Measured: Cmax (ng/mL)
Report only the number, with the unit ng/mL understood.

For record CC(NC(C)(C)C)C(=O)c1cccc(Cl)c1 (stereo not shown) [Bupropion, bupropion] the listed Cmax is 83.5

====

Format: in vivo, human
Conditions: human, plasma, oral, 150 mg
Parameter Measured: AUC(0-t) (ng·h/mL)
Report only the number, with the unit ng·h/mL understood.

For record CC(NC(C)(C)C)C(=O)c1cccc(Cl)c1 (stereo not shown) the listed AUC(0-t) is 869
